A collection of variants and their measured aptazyme ON/OFF ratio
B1: Pistol ribozyme (parent)
chain: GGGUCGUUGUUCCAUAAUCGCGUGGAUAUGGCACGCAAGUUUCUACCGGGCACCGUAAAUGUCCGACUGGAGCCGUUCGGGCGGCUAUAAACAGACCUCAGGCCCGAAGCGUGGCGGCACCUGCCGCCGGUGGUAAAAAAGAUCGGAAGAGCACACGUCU

variants of: B1; test: aptazyme ON/OFF ratio, guanine; higher = stronger switching; co-transcriptional cleavage with and without guanine
experimental endpoint: aptazyme ON/OFF ratio

mutation_annotation="U7A G9C U11A C12G C13A" recorded_result=1.04
mutation_annotation="U7A U8A G9A U10A C13A" recorded_result=1.12
mutation_annotation="G9U U11G C12A C13A" recorded_result=1.31
mutation_annotation="U8C U10A U11C C12U C13U" recorded_result=1.06
mutation_annotation="U7G U8C G9U U10G C13G" recorded_result=1.27
mutation_annotation="U7G G9U U10C U11A C12G C13A" recorded_result=1.13
mutation_annotation="U7A U8G G9A U11G C13A" recorded_result=1.39
mutation_annotation="U7C G9U U10A U11A C12U C13U" recorded_result=1.25
mutation_annotation="U7A U10A U11A C12A" recorded_result=1.11
mutation_annotation="U7A U8C U11C C13U" recorded_result=1.17
mutation_annotation="U7C U8C G9U U10C U11C C12U" recorded_result=1.23
mutation_annotation="U8A G9A U10C U11A C13A" recorded_result=1.11
mutation_annotation="U7G U8G G9U U11C C12U C13G" recorded_result=1.38
mutation_annotation="G9U U10A C12U C13U" recorded_result=1.06
mutation_annotation="U10C C12G C13U" recorded_result=1.35
mutation_annotation="U7G U8A C12G C13G" recorded_result=1.17
mutation_annotation="U7A U8A G9A U10G U11A C12G" recorded_result=1.13
mutation_annotation="U7G U8A G9C U10G U11A C12A C13G" recorded_result=0.999
mutation_annotation="U7G U8G U11A C12G C13U" recorded_result=1.33
mutation_annotation="U7A U8A G9C U10G U11C C12A" recorded_result=1.81
mutation_annotation="U7G U8A G9C U11G C12U C13G" recorded_result=1.07
mutation_annotation="U7G U8G G9U U10G U11G C12A C13A" recorded_result=1.04
mutation_annotation="U7G U8A G9A U10C C12G C13G" recorded_result=1.11
mutation_annotation="U7G U8G G9U U10A C13A" recorded_result=1.13
mutation_annotation="U10G U11A C13A" recorded_result=1.15
mutation_annotation="U7G U8C G9A U10C U11G C13U" recorded_result=1.24
mutation_annotation="U7C U8A G9U U10G U11C" recorded_result=1.07
mutation_annotation="U7A U8C G9C U10C U11G C13A" recorded_result=1.07
mutation_annotation="U8G G9A U10G U11A C12G C13G" recorded_result=1.03
mutation_annotation="U8A U10C U11C C12G C13U" recorded_result=1.11
mutation_annotation="U8G G9C U10G C12A C13G" recorded_result=1.09
mutation_annotation="U7C G9C U10A C13G" recorded_result=1.05
mutation_annotation="U7G U8C G9U U10A U11C" recorded_result=1.37
mutation_annotation="U7A U8G G9C U10G U11A C12G C13U" recorded_result=1.46
mutation_annotation="U8C G9C U11A C12U C13G" recorded_result=1.12
mutation_annotation="U7A U8A G9U U11C C12A" recorded_result=1.17
mutation_annotation="U7C U8A G9U U10C U11C C12U C13U" recorded_result=1.02
mutation_annotation="U7C U8A U10C U11C C13U" recorded_result=1.01
mutation_annotation="U7C U8A G9C U10G U11C" recorded_result=1.1
mutation_annotation="U7A U8A G9A U11G C12G C13G" recorded_result=1.33
mutation_annotation="U7G U8G G9C U11A C12A C13U" recorded_result=1.16
mutation_annotation="U8C G9A U10C U11C C12U C13U" recorded_result=1.09
mutation_annotation="U7C U8A G9C U10C U11C C12G C13G" recorded_result=1.04
mutation_annotation="U7A U8G G9C U10C U11A C12G C13U" recorded_result=1.17
mutation_annotation="U7G G9C U10C C12A C13U" recorded_result=1.36
mutation_annotation="U7C U8G G9U U10G C12U C13A" recorded_result=1.17
